Reference source for all entries: PubChem BioAssay

# inhibition values compiled below
test: inhibitors of TNFa-induced NFkB p65 translocation, primary screen, imaging, HUVEC, MLSMR starter and 10KST1 sets (AID 438);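 also: compound added about 3h40 before a 20 min TNFalpha stimulation; signal is the nuclear over cytoplasmic p65 intensity ratio per well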
condition-description: HUVEC TNFa-induced p65 nuclear translocation; at 2 µM, stronger effect = higher value, 0% TNFa-plus-vehicle, 100% no-TNFa wells
The source made the active and inactive calls.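 The calls were made as follows: active = inhibition above 20% together with a positive visual image hit; inconclusive = visual image hit but inhibition not above 20%; inactive = no visual image hit.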

CCOC(=O)c1ccc(NC(=O)CSc2n[nH]c(-c3ccncc3)n2)cc1	-1.9% (inactive)
COc1cc(Cn2ccnc2)c(OC)cc1Cn1ccnc1	0.1% (inactive)
O=C(COc1ccc(Cl)cc1)NCc1nnc(SCC(=O)Nc2ccc3c(c2)OCCO3)o1	0% (inactive)

Q: Supply inhibition value. Item: COc1cccc2cc(C(=O)N3CCN(c4ccc(C)cc4C)CC3)c(=O)oc12
A: -3.4% (inactive)

Q: Supply inhibition value. Item: COc1ccc(-c2nc3c(c(=O)n(C)c(=O)n3C)n2CC2CC(c3ccccc3)=NO2)cc1OC (stereo unspecified)
A: -3.2% (inactive)

Q: Supply inhibition value. Item: NCCCCCc1nnc(SC/C=C/c2ccccc2)o1
A: -9.8% (inactive)

Q: Supply inhibition value. Item: CCOCC(=O)Nc1sc2c(c1C(=O)OCC)CCCC2
A: -1.6% (inactive)

Q: Supply inhibition value. Item: O=C(CSc1ncnc2c1oc1ccccc12)Nc1ccccc1C(F)(F)F
A: -2.9% (inactive)

Q: Supply inhibition value. Item: Cc1c(C(=O)Nc2ccncc2)oc2c1C(=O)CC(C)(C)C2
A: 9.6% (inactive)

Q: Supply inhibition value. Item: CCc1nnc(NC(=O)NCN2C(=O)C3C4C=CC(C4)C3C2=O)s1 (stereo unspecified)
A: 4.3% (inactive)

Q: Supply inhibition value. Item: O=C(Cn1nnc(-c2ccccc2)n1)Nc1ccccc1N1CCOCC1
A: 3% (inactive)
